Consider the following binders and their measured pKd readings.
# subject-of-test: T1, recombinant human CD3 epsilon/gamma heterodimer (human, UniProt P07766 23-126; P09693 23-116)
# T1 construct: Recombinant protein in solution (200-50 nM) in the Octet assay; also called hCD3 E/G
# protocol-details: Octet BLI, mAb on FAB2G sensor, hCD3 E/G 200-50 nM; R^2 0.98
Lab note: report pKd as minus log10 of the concentration in molar units, number only.

Problem: Data request, read-out pKd, for ABL-CD3-38 (antibody, V domains shown, Chimeric hybridoma mAb: human V, CH1, upper hinge; mouse middle hinge, CH2, CH3) VH: QGQLQQWGAGLLKPSETLSLTCAVYGGSFSGYYWSWIRLPPGKGLEWIGEINHSGNTNYNPSLKSRVTISVDTSKNQFSLQLSSVTAADTAVYYCAKEVEIWGYFDYWGQGTLVTVSS VL: QSVLTQPPSVSGAPGQRVTISCTGSSSNIGAGYDVHWYQQLPGTAPKLLIYGNSNRPSGVPDRFSGSKSGTSASLAITGLQAEDETDYNCQSYDSSLSGYVFGTGTKVTVL
Result: 8.87

Problem: Data request, read-out pKd, for ABL-CD3-43 (antibody, V domains shown, Chimeric hybridoma mAb: human V, CH1, upper hinge; mouse middle hinge, CH2, CH3) VH: EVQLVQSGAEVKKPGESLKISCKGSEYSFTTYWIAWVRQMPGKGLEWMGIIYPGDSDTTYSPSFQGQVTISADKSISIAFLQWSSLKASDTAMYYCARQGELDAFDIWGQGTMVTVSS VL: QSALTQPASVSGSPGQSITISCTGTSSDVGSYNLVSWYQQHPGKAPKLMIYEDIRRPSGVSNRFSASKSGDTASLTISGLQAEDEADYYCCSYAGSTTFAIFGGGTKLTVL
Result: 8.16

Problem: Data request, read-out pKd, for ABL-CD3-62 (antibody, V domains shown, Chimeric hybridoma mAb: human V, CH1, upper hinge; mouse middle hinge, CH2, CH3) VH: EVQLVESGGGLVKPGGSLRLSCAASGFTFSSYSMNWVRQAPGKGLEWVSSISRSSGYIFYADSVKGRFTISRDNAKNSLYLQMNSLRAEDTAVYYCVRERVGAGFDYWGQGTLVTVSS VL: NFMLTQPHSVSESPGKTVAISCTRSSGSIASNYVQWYQQRPGSSPTAVIYEDNQRPSGVPDRFSGSIDSSSNSAFLTISGLKTEDEADYYCQSYDSSNRVFGGGTKLTVL
Result: 7.62

---
Problem: Data request, read-out pKd, for ABL-CD3-34 (antibody, V domains shown, Chimeric hybridoma mAb: human V, CH1, upper hinge; mouse middle hinge, CH2, CH3) VH: EVHLVESGGGLVKPGGSLRLSCAASGFTFSRYSMNWVRQAPGKGLEWVSSISRSSSYIYYADSVKGRFTISRDNAKNSLYLQMNSLRAEDTAVYYCAREPRTLGMDYWGQGILVTVSS VL: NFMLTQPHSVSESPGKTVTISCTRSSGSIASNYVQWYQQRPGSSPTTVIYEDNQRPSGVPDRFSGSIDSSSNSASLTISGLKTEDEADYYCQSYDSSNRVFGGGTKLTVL
Result: 8.01
